target: UniProt P00533; test: EGFR kinase assay (ELISA); conditions: concentration 300 nM; one value per replicate column
outcomeMeasure: inhibition at 0.3 µM (%)

Some compounds with recorded inhibition at 0.3 µM:
Look up inhibition at 0.3 µM for this compound: COCCOc1cc2ncnc(Nc3cccc(-c4cn(-c5ccc(OC)cc5OC)nn4)c3)c2cc1OCCOC
32.9

Look up inhibition at 0.3 µM for this compound: COCCOc1cc2ncnc(Nc3cccc(-c4cn(Cc5ccccc5I)nn4)c3)c2cc1OCCOC [e2]
49

a: COCCOc1cc2ncnc(Nc3cccc(-c4cn(Cc5ccccc5Br)nn4)c3)c2cc1OCCOC
b: CCOc1cccc(-n2cc(-c3cccc(Nc4ncnc5cc(OCCOC)c(OCCOC)cc45)c3)nn2)c1
Dear colleague, could you let me know whether a or b has the lower recorded inhibition at 0.3 µM? Thanks. // return label of chosen record
b
(b: 11.4%, a: 42.2%)

a: COCCOc1cc2ncnc(Nc3cccc(-c4cn(-c5ccccc5)nn4)c3)c2cc1OCCOC
b: COCCOc1cc2ncnc(Nc3cccc(-c4cn(Cc5cc(Br)cc(Br)c5)nn4)c3)c2cc1OCCOC
Kindly identify which of a and b has the larger recorded inhibition at 0.3 µM value. // return label of chosen record
a
(a: 59.3%, b: 10.3%)

* * *

biological target: wild-type EGFR (Homo sapiens); assay: EGFR kinase assay (ELISA); conditions: concentration 3 nM; one value per replicate column; 0.003 µM
Sequence (P00533 25-1210): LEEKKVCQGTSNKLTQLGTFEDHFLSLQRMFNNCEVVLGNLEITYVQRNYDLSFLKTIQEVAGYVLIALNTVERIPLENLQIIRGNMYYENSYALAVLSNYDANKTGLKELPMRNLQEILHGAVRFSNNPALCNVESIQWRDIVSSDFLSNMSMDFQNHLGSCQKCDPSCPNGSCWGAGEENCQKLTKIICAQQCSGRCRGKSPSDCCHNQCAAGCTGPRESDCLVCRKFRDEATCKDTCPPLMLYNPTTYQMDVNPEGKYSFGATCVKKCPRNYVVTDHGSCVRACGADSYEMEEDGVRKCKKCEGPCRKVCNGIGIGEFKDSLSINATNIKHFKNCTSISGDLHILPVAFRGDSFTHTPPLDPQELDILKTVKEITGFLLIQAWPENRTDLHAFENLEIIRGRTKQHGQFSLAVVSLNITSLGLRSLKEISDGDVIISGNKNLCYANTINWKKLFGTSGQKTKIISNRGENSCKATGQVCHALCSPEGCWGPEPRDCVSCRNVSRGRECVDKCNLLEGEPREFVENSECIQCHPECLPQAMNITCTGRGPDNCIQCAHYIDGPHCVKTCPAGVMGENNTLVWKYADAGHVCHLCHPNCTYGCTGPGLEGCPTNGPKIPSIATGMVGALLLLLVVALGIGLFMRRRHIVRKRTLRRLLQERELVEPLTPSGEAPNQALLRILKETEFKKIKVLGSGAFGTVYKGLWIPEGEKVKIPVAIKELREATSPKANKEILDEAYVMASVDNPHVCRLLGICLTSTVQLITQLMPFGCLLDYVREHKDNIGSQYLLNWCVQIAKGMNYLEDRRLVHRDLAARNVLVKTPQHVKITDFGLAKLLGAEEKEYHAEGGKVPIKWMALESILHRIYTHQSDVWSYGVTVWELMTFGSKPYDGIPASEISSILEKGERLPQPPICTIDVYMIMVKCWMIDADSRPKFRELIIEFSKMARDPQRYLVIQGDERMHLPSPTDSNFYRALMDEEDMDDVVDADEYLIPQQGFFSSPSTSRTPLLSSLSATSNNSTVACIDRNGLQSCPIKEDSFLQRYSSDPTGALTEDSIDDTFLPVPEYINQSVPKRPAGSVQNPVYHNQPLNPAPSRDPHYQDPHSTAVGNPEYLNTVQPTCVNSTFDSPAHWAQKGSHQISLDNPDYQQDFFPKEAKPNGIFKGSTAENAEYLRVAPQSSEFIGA
outcomeMeasure: Inhibition

Look up Inhibition for this molecule: COCCOc1cc2ncnc(Nc3cccc(-c4cn(-c5ccc(C)cc5O)nn4)c3)c2cc1OCCOC [e18]
12.693

Look up Inhibition for this molecule: COCCOc1cc2ncnc(Nc3cccc(-c4cn(Cc5ccccc5I)nn4)c3)c2cc1OCCOC [e2]
24.6753

Look up Inhibition for this molecule: COCCOc1cc2ncnc(Nc3cccc(-c4cn(-c5ccc(OC)cc5OC)nn4)c3)c2cc1OCCOC [e17]
19.0476

Look up Inhibition for this molecule: COCCOc1cc2ncnc(Nc3cccc(-c4cn(Cc5ccccc5)nn4)c3)c2cc1OCCOC [e1]
27.2727

Look up Inhibition for this molecule: COCCOc1cc2ncnc(Nc3cccc(-c4cn(-c5ccccc5)nn4)c3)c2cc1OCCOC [e15]
30.0597

A: COCCOc1cc2ncnc(Nc3cccc(-c4cn(-c5ccccc5C(F)(F)F)nn4)c3)c2cc1OCCOC [e16]
B: COCCOc1cc2ncnc(Nc3cccc(-c4cn(CCc5ccccc5)nn4)c3)c2cc1OCCOC [e20]
C: COCCOc1cc2ncnc(Nc3cccc(-c4cn(Cc5cc(Br)cc(Br)c5)nn4)c3)c2cc1OCCOC [e4]
D: COCCOc1cc2ncnc(Nc3cccc(-c4cn(-c5ccc(OC)c(OC)c5)nn4)c3)c2cc1OCCOC [e19]
Please list these molecules in decreasing order of Inhibition. Labels, ranked as asked.
B, A, C, D
(B: 33.7948, A: 15.5906, C: 8.553, D: 3.333)

* * *

test system: A549 cells; experiment: CCK-8 antiproliferation assay, A549; details: Homo sapiens, A549, read-out: Inhibitory efficacy, A549 cells; 1uM; given as fraction; Repeat 1-3
outcomeMeasure: inhibition at 1 µM (%)
Numeric only. Scale: %

Look up inhibition at 1 µM for this molecule: C#Cc1cccc(Nc2ncnc3cc(OCCOC)c(OCCOC)cc23)c1 [Erlotinib, reference compound]
22.3

Look up inhibition at 1 µM for this molecule: COCCOc1cc2ncnc(Nc3cccc(-c4cn(-c5ccc(C)cc5)nn4)c3)c2cc1OCCOC
9.61

Look up inhibition at 1 µM for this molecule: COCCOc1cc2ncnc(Nc3cccc(-c4cn(-c5ccccc5Br)nn4)c3)c2cc1OCCOC
16

More entries:
Look up inhibition at 1 µM for this molecule: COCCOc1cc2ncnc(Nc3cccc(-c4cn(-c5ccc(F)cc5)nn4)c3)c2cc1OCCOC
27.5

Look up inhibition at 1 µM for this molecule: COCCOc1cc2ncnc(Nc3cccc(-c4cn(-c5cccc([N+](=O)[O-])c5)nn4)c3)c2cc1OCCOC
8.71

Look up inhibition at 1 µM for this molecule: COCCOc1cc2ncnc(Nc3cccc(-c4cn(-c5ccc(C)cc5O)nn4)c3)c2cc1OCCOC
24.6

Look up inhibition at 1 µM for this molecule: COCCOc1cc2ncnc(Nc3cccc(-c4cn(-c5ccccc5)nn4)c3)c2cc1OCCOC
11.7

Look up inhibition at 1 µM for this molecule: COCCOc1cc2ncnc(Nc3cccc(-c4cn(-c5ccccc5C(F)(F)F)nn4)c3)c2cc1OCCOC
15.9

Data origin, for the record: paper PMC8776995
